Entries and their measured TGI follow.
- Tested on: MDA-MB-468 breast
- Assay: NCI tumour cell line growth inhibition, 48 h
Readout label: TGI

Molecule	Reported result
N#Cc1c(Br)n(C2OC(CO)C(O)C2O)c2ncnc(N)c12 (centres undefined)	6.12 µM
CC(C)N1CCN(Cc2ccc3c(NNC(=O)c4ccccc4)nc4cc(F)ccc4n23)CC1	1.4 µM
COc1ccc(-c2ccc(-c3ccc(C(=N)N)nc3)s2)cc1Cl	3.32 µM
Cc1cc(Nc2nc(-c3cccnc3)nc3ccccc23)n[nH]1	21.4 µM

---

- Test system: MDA-MB-468 breast
- Assay: NCI tumour cell line growth inhibition, 48 h
Entries and their measured TGI follow.

Molecule	Measurement target	TGI
COc1ccc(/C=c2\sc3n(c2=O)C2C(NN=3)N(C)C(=O)N2C)cc1 (centres undefined)	MDA-MB-468 breast	0.783 µM
C=C1C(=O)O[C@H]2[C@H]1CC/C(COC(=O)CCSCCC(=O)OC/C1=C/CC[C@@]3(C)O[C@H]3[C@H]3OC(=O)C(=C)[C@@H]3CC1)=C\CC[C@@]1(C)O[C@@H]21	MDA-MB-468 breast	1.5 µM
COc1ccc2c(C3(c4cn(C)c5cc(OC)ccc45)C(=O)Nc4ccc(Cl)cc43)cn(C)c2c1	MDA-MB-468 breast	9.08 µM
O=[N+]([O-])c1ccc(Oc2nc(Nc3ccc(O[C@H]4CO[C@H]5[C@@H]4OC[C@@H]5O)c(Cl)c3)ncc2F)c(Cl)c1	MDA-MB-468 breast	4.66 µM
COc1ccccc1C1=C(Nc2ccccc2)C(=O)NC1=O	MDA-MB-468 breast	> 25 µM
Cn1nc(-c2ccc(Cl)cc2)nc2c(=O)n(C)c(=O)nc1-2	MDA-MB-468 breast	3.35 µM
CCC(c1ccc(OC)cc1)C(CC)c1ccc(O)c(CN2CCN(C)CC2)c1 (centres undefined)	MDA-MB-468 breast	9.77 µM
Cc1ccc(/C=C2\CN(C(=O)C(Cl)Cl)C/C(=C\c3ccc(C)cc3)C2=O)cc1	MDA-MB-468 breast	0.427 µM
COc1cccc(/C=N/NC(=S)NC2CC3CCC2C3)c1O (centres undefined)	MDA-MB-468 breast	> 100 µM

---

Entries and their measured GI50 follow.
- System: MDA-MB-468 breast
- Assay: NCI tumour cell line growth inhibition, 48 h

Compound	GI50
COc1ccc(-c2ccc(-c3ccc(C(=N)N)nc3)s2)cc1Cl	1.74 µM
O=C(O)c1cn(C2CC2)c2cc(N3CCN(C(=O)Nc4nc(-c5ccccc5)cs4)CC3)c(F)cc2c1=O	0.563 µM
CC1=CC(=O)C(C(C)C)=CC1=Nc1cc(Br)c(O)c(Br)c1	3.7 µM
COc1cccc(-c2ccc3c(c2)C2CCN(Cc4ccccc4)C3C2)c1 (stereo not given)	2.89 µM
CC(C)N1CCN(Cc2ccc3c(NNC(=O)c4ccccc4)nc4cc(F)ccc4n23)CC1	0.26 µM
